Target: NAMPT (Homo sapiens (Human))
Sequence (P43490 whole entry): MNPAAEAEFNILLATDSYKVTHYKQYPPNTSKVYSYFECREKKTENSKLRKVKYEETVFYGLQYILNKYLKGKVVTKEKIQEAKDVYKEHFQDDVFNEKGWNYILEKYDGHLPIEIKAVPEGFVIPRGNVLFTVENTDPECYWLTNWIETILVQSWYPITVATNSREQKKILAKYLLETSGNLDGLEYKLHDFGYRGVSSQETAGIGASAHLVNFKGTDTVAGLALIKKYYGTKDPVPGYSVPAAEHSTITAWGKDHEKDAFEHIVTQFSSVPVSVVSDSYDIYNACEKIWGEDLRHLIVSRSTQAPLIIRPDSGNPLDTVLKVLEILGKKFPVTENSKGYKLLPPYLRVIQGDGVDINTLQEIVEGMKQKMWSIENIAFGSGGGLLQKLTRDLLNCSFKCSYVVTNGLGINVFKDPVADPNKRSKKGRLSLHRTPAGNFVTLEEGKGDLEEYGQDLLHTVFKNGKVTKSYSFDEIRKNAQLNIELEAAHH
Experiment: Assay 1: Biochemical Inhibition Assay (NAMPT enzymatic reaction, NMN quantified by mass spectrometry);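 further: recombinant His-tagged human NAMPT preincubated with compound 15 min, then reacted 30 min at rt with 1 µM NAM, 100 µM PRPP, 2.5 mM ATP, NMN product read by RapidFire MS, normalized to L-Cystathionine internal standard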
Details: read-out: Biochemical (IC50)
RECORDED_METRIC: log10 of IC50 (log10 of the value in nM)
Short version: log10 scale, IC50, nM.

- O=C(NCc1ccc(S(=O)(=O)[C@@H]2CCOC2)cc1)c1cnc2nccn2c1 [Example 80]: 0.95
- CCCN1CCC([S+]([O-])c2ccc(CNC(=O)c3cc4ccncc4o3)cc2)CC1 (centres unmarked) [Example 358]: 1.29

Input line: Endpoint output: log10 of IC50 of `O=C(NCc1ccc(S(=O)(=O)N2C[C@H]3C[C@@H]2C3)cc1)c1ccc2nccn2c1` . Value?
Output line: 1.08

Input line: Endpoint output: log10 of IC50 of `CC(C)(C)OC(=O)NCC12CC(CN1S(=O)(=O)c1ccc(CNC(=O)c3ccc4nccn4c3)cc1)C2` . Value?
Output line: 1.53

Input line: Endpoint output: log10 of IC50 of CCCN1CCC([S+]([O-])c2ccc(CNC(=O)c3ccc4nccn4c3)cc2)CC1 (centres unmarked) . Value?
Output line: 1.44

Input line: Endpoint output: log10 of IC50 of `CN1CCC2(CC1)CN(S(=O)(=O)c1ccc(CNC(=O)c3ccc4nccn4c3)cc1)C2` . Value?
Output line: 1.44

Input line: Endpoint output: log10 of IC50 of CC(C)(C)OC(=O)N1CC2OCCN(S(=O)(=O)c3ccc(CNC(=O)c4ccc5nccn5c4)cc3)C2C1 (racemic) . Value?
Output line: 2.22

Input line: Endpoint output: log10 of IC50 of `CS(=O)(=O)N1CCC(S(=O)(=O)c2ccc(CNC(=O)c3cnc4[nH]ncc4c3)cc2)CC1` . Value?
Output line: 1.87
